Provide the reported MC3R selectivity (relative to MC4R) of each item.
tgt: human MC4R (Homo sapiens)
Sequence (P32245 whole entry): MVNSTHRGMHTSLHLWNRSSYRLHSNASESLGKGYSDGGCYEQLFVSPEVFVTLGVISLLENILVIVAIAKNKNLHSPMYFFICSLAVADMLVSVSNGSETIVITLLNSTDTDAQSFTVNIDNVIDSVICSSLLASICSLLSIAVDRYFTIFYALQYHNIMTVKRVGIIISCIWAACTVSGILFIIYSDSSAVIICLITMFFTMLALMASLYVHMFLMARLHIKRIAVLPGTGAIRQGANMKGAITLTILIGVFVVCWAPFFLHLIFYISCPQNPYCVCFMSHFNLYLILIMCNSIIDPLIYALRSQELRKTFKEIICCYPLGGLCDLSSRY
method.summary: Intracellular cAMP levels in live cells, MC3R selectivity relative to MC4R
Assay type: cell-based
applied.conditions: cAMP assays in human MC3R and human MC4R stable cell lines
Non-standard residues stand in square brackets, D forms with d. Residues, ends and D or L forms follow the SMILES beside them. Phe(4-Br) = N[C@@H](Cc1ccc(Br)cc1)C(=O)O; Phe(4-I) = N[C@@H](Cc1ccc(I)cc1)C(=O)O; Nle = CCCC[C@H](N)C(=O)O; dAbu = CC[C@@H](N)C(=O)O
Please state the value as a number alone, without comment.

Form field MC3R selectivity (relative to MC4R), entry CCCC[C@H](NC(C)=O)C(=O)N[C@H](C)C(=O)N[C@@H](Cc1c[nH]cn1)C(=O)N[C@@H](Cc1ccc(Br)cc1)C(=O)N[C@@H](CCCNC(=N)N)C(=O)N[C@H](Cc1c[nH]c2ccccc12)C(=O)N[C@@H](CC(=O)O)C(=O)N[C@@H](CCCNC(=N)N)C(=O)N[C@@H](Cc1ccccc1)C(=O)NCC(=O)O [CTX-1165] (Ac-[Nle][dA]H[Phe(4-Br)]R[dW]DRFG-OH) : 5598

Form field MC3R selectivity (relative to MC4R), entry CCCC[C@H](NC(C)=O)C(=O)N[C@H](C)C(=O)N[C@@H](Cc1c[nH]cn1)C(=O)N[C@@H](Cc1ccc(I)cc1)C(=O)N[C@@H](CCCNC(=N)N)C(=O)N[C@H](Cc1c[nH]c2ccccc12)C(=O)NCC(N)=O [CTX-1543, Nle-D-Ala-His-Phe(4-I)-Arg-D-Trp-Gly] (Ac-[Nle][dA]H[Phe(4-I)]R[dW]G-NH2) : 202

Form field MC3R selectivity (relative to MC4R), entry CCCC[C@H](NC(C)=O)C(=O)N1CCC[C@@H]1C(=O)N[C@@H](Cc1c[nH]cn1)C(=O)N[C@@H](Cc1ccccc1)C(=O)N[C@@H](CCCNC(=N)N)C(=O)N[C@H](Cc1c[nH]c2ccccc12)C(=O)N[C@@H](CC(=O)O)C(=O)N[C@@H](CCCNC(=N)N)C(=O)N[C@@H](Cc1ccccc1)C(=O)NCC(=O)O [CTX-1184] (Ac-[Nle][dP]HFR[dW]DRFG-OH) : 28

Form field MC3R selectivity (relative to MC4R), entry CSCC[C@H](NC(=O)[C@@H](N)C(C)C)C(=O)NCC(=O)N[C@@H](Cc1c[nH]cn1)C(=O)N[C@@H](Cc1ccccc1)C(=O)N[C@@H](CCCNC(=N)N)C(=O)N[C@H](Cc1c[nH]c2ccccc12)C(=O)N[C@@H](CC(=O)O)C(=O)N[C@@H](CCCNC(=N)N)C(=O)N[C@@H](Cc1ccccc1)C(=O)NCC(=O)O [CTX-1546] (H-VMGHFR[dW]DRFG-OH) : 51

Form field MC3R selectivity (relative to MC4R), entry CCCC[C@H](NC(C)=O)C(=O)N[C@H](C)C(=O)N[C@@H](Cc1c[nH]cn1)C(=O)N[C@@H](Cc1ccc(I)cc1)C(=O)N[C@@H](CCCNC(=N)N)C(=O)N[C@H](Cc1c[nH]c2ccccc12)C(=O)N[C@@H](CC(=O)O)C(=O)N[C@@H](CCCNC(=N)N)C(=O)N[C@@H](Cc1ccccc1)C(N)=O [CTX-1169] (Ac-[Nle][dA]H[Phe(4-I)]R[dW]DRF-NH2) : 200

Form field MC3R selectivity (relative to MC4R), entry CCCC[C@H](NC(=O)[C@@H](NC(=O)[C@@H](N)Cc1ccc(O)cc1)C(C)C)C(=O)N[C@H](C)C(=O)N[C@@H](Cc1c[nH]cn1)C(=O)N[C@@H](Cc1ccc(I)cc1)C(=O)N[C@@H](CCCNC(=N)N)C(=O)N[C@H](Cc1c[nH]c2ccccc12)C(=O)N[C@@H](CC(=O)O)C(=O)N[C@@H](CCCNC(=N)N)C(=O)N[C@@H](Cc1ccccc1)C(=O)NCC(=O)O [CTX-2122] (H-YV[Nle][dA]H[Phe(4-I)]R[dW]DRFG-OH) : 324

Form field MC3R selectivity (relative to MC4R), entry CCCC[C@H](NC(=O)[C@@H](NC(=O)[C@@H](N)Cc1ccc(O)cc1)C(C)C)C(=O)N[C@H](CC)C(=O)N[C@@H](Cc1c[nH]cn1)C(=O)N[C@@H](Cc1ccccc1)C(=O)N[C@@H](CCCNC(=N)N)C(=O)N[C@H](Cc1c[nH]c2ccccc12)C(=O)N[C@@H](CC(=O)O)C(N)=O [CTX-1131, Tyr-Val-Nle-D-Abu-His-Phe-Arg-D-Trp-Asp] (H-YV[Nle][dAbu]HFR[dW]D-NH2) : 65

Form field MC3R selectivity (relative to MC4R), entry CCCC[C@H](NC(C)=O)C(=O)N[C@H](C)C(=O)N[C@@H](Cc1c[nH]cn1)C(=O)N[C@@H](Cc1ccccc1)C(=O)N[C@@H](CCCNC(=N)N)C(=O)N[C@H](Cc1c[nH]c2ccccc12)C(=O)N[C@@H](CC(=O)O)C(=O)N[C@@H](CCCNC(=N)N)C(=O)N1CCC[C@H]1C(=O)NCC(=O)O [CTX-1536] (Ac-[Nle][dA]HFR[dW]DRPG-OH) : 72
